# Test system: HSkMC
# assay_explanation: cytotoxicity call (relative viability < 0.9)
# study_conditions: 10 µM
The whole screen tested about 39,000 compounds, of which about 1,500 (3.8%) were called active. The full list was thinned out, with actives kept by preference.
Outcome codes: 1.0 (active), 0.0 (inactive)

# molecule, assigned_class
measured = [
    ("COc1cccc(S(=O)(=O)Nc2ccc3c(c2)[C@@H]2C[C@H](CC(=O)NCc4cccc(F)c4)O[C@@H](CO)[C@@H]2O3)c1", 0.0),
    ("O[C@@H](COc1cccc2ncccc12)CN1CCN([C@@H]2c3ccccc3[C@@H]3[C@H](c4ccccc42)C3(F)F)CC1", 1.0),
    ("C[C@H](CO)N1C[C@H](C)[C@H](CN(C)C(=O)Nc2ccccc2)Oc2ncc(-c3cccc(C(F)(F)F)c3)cc2C1=O", 0.0),
    ("COc1ccccc1N1CCN(CC(O)COc2cccc3ccccc23)CC1 (stereo not given)", 0.0),
    ("C[C@@H]1CN([C@H](C)CO)C(=O)Cc2cc(NC(=O)CCCN(C)C)ccc2O[C@H]1CN(C)Cc1ccc(Oc2ccccc2)cc1", 0.0),
]

###

# Tested on: HSkMC
# assay_explanation: cytotoxicity call (relative viability < 0.9)
# study_conditions: 10 µM
Hit rate of the full screen: of about 39,000 compounds, about 1,500 (3.8%) were called active. The list comes from a sample in which actives are over-represented; it also holds close analogues and randomly drawn compounds.
Outcome codes: y = active, n = inactive

# molecule, experimental_target, assigned_class
measured = [
    ("Cc1ccc(Oc2nnc(-c3cccs3)c3ccccc23)cc1", "HSkMC", "n"),
    ("Cc1ccc(S(=O)(=O)N(C)C[C@H]2Oc3cc(C#Cc4ccncc4)ccc3S(=O)(=O)N([C@H](C)CO)C[C@@H]2C)cc1", "HSkMC", "n"),
    ("C[C@H](CO)N1C[C@H](C)[C@@H](CN(C)Cc2ccc(Cl)c(Cl)c2)OCCCC[C@H](C)Oc2ccc(NS(=O)(=O)c3ccc(Cl)cc3)cc2C1=O", "HSkMC", "n"),
    ("C[C@@H]1CN([C@H](C)CO)C(=O)c2cc(NS(=O)(=O)c3ccc(Cl)cc3)ccc2O[C@@H](C)CCCCO[C@H]1CN(C)Cc1ccc(Cl)c(Cl)c1", "HSkMC", "y"),
    ("C[C@@H]1CCCCO[C@H](CN(C)Cc2ccc(Cl)c(Cl)c2)[C@H](C)CN([C@@H](C)CO)C(=O)c2cc(NS(=O)(=O)c3ccc(Cl)cc3)ccc2O1", "HSkMC", "n"),
    ("C[C@H](CO)N1C[C@H](C)[C@@H](CN(C)Cc2ccc(C(F)(F)F)cc2)Oc2ccc(NC(=O)Nc3ccc(F)cc3)cc2CC1=O", "HSkMC", "y"),
]

###

# Tested on: HSkMC (human skeletal muscle cells)
# assay_explanation: cytotoxicity call (relative viability < 0.9)
# study_conditions: 10 µM
Out of some 39,000 compounds screened, about 1,500 (3.8%) were called active. The full list was thinned out, with actives kept by preference.
Outcome codes: YES = active, NO = inactive

# molecule, experimental_target, assigned_class
rows = [
    ("C=CCC[C@H](Cc1ccc(F)cc1)C(=O)OC[C@H](Cc1c[nH]c2ccccc12)NC(=O)[C@@H](CC=C)CC(=O)N[C@@H](CO)Cc1ccccc1", "HSkMC", "YES"),
    ("C[C@@H]1CN([C@H](C)CO)S(=O)(=O)c2ccc(C3=CCCC3)cc2O[C@@H]1CN(C)C(=O)c1cnccn1", "HSkMC", "NO"),
    ("C[C@H](CO)N1C[C@H](C)[C@H](CN(C)C(=O)C2CCCCC2)OCCCC[C@H](C)Oc2ccc(NC(=O)Nc3ccc4c(c3)OCO4)cc2C1=O", "HSkMC", "NO"),
    ("C=CCC[C@@H](Cc1ccc(F)cc1)C(=O)OC[C@H](Cc1c[nH]c2ccccc12)NC(=O)[C@@H](CC=C)CC(=O)N[C@@H](CO)Cc1ccccc1", "HSkMC", "NO"),
    ("C=CCC[C@H](Cc1ccc(F)cc1)C(=O)OC[C@H](Cc1c[nH]c2ccccc12)NC(=O)[C@@H](CC=C)CC(=O)N[C@H](CO)Cc1ccccc1", "HSkMC", "YES"),
    ("C[C@@H]1CCCCO[C@H](CN(C)C(=O)Nc2ccc3c(c2)OCO3)[C@H](C)CN([C@H](C)CO)C(=O)c2cc(NC(=O)c3ccccc3)ccc2O1", "HSkMC", "NO"),
    ("N=C(C[n+]1ccccc1)NO", "HSkMC", "NO"),
]
